Exercise: for every item that follows, state its recorded MIC.
system: E. faecium LMG11423; test: microbe, parasite or virus in culture; format: cell-based; details: Enterococcus faecium, LMG11423, 20 h, read-out: Minimal Inhibition Concentration (MIC) E. faecium LMG11423
Just the number please, in µM, no unit attached.

So for `CC(C)[Si](Oc1cc(/C=C/c2ccc(OS(=O)(=O)O)cc2)cc(OS(=O)(=O)O)c1)(C(C)C)C(C)C` , the logged MIC turned out to be 16

So for `CC(C)[Si](Oc1ccc(/C=C/c2cc(O)cc(O)c2)cc1)(C(C)C)C(C)C` , the logged MIC turned out to be 16

So for CCCCCCCCCCCCCCCCCC(=O)OC[C@H]1O[C@@H](Oc2cc(O)cc(/C=C/c3ccc(O)cc3)c2)[C@H](O)[C@@H](O)[C@@H]1O [compound 6, piceid stearate] , the logged MIC turned out to be 1

So for `CCCCCCCCCCCC(=O)OC[C@H]1O[C@@H](Oc2cc(O)cc(/C=C/c3ccc(O)cc3)c2)[C@H](O)[C@@H](O)[C@@H]1O` , the logged MIC turned out to be 53.3

So for `CC(C)[Si](Oc1cc(O)cc(/C=C/c2ccc(O)cc2)c1)(C(C)C)C(C)C` , the logged MIC turned out to be 4

So for CCCCOc1ccc(/C=C/c2cc(OS(=O)(=O)O)cc(OS(=O)(=O)O)c2)cc1 [compound 14, 4′-butyl-3,5-disulfate resveratrol] , the logged MIC turned out to be 32

====

test system: S. aureus LMG8224; test: Combined action with antibiotics (MIC reduction, checkerboard FICI); assay type: cell-based, Staphylococcus aureus; details: antibiotic alone
Exercise: for every item that follows, state its recorded MIC of antibiotic alone (Ab).
Just the number please, in µM, no unit attached.

So for `[H]/N=C(/N)N[C@H]1[C@H](O)[C@@H](O)[C@H](O[C@@H]2O[C@@H](C)[C@](O)(C=O)[C@H]2O[C@@H]2O[C@@H](CO)[C@H](O)[C@@H](O)[C@@H]2NC)[C@@H](N/C(N)=N\[H])[C@@H]1O` , the logged MIC of antibiotic alone (Ab) turned out to be 16

So for `NC[C@H]1O[C@H](O[C@H]2[C@H](O)[C@@H](O[C@H]3O[C@H](CO)[C@@H](O)[C@H](N)[C@H]3O)[C@H](N)C[C@@H]2N)[C@H](O)[C@@H](O)[C@@H]1O` , the logged MIC of antibiotic alone (Ab) turned out to be 4

So for CNC(C)C1CCC(N)C(OC2C(N)CC(N)C(OC3OCC(C)(O)C(NC)C3O)C2O)O1 (stereo not shown) , the logged MIC of antibiotic alone (Ab) turned out to be 1

So for `NCC[C@H](O)C(=O)N[C@@H]1C[C@H](N)[C@@H](O[C@H]2O[C@H](CN)[C@@H](O)[C@H](O)[C@H]2O)[C@H](O)[C@H]1O[C@H]1O[C@H](CO)[C@@H](O)[C@H](N)[C@H]1O` , the logged MIC of antibiotic alone (Ab) turned out to be 8

====

tested on: E. faecalis LMG16216; test: microbe, parasite or virus in culture; type: cell-based, Enterococcus faecalis; conditions: Enterococcus faecalis, LMG16216, 20 h, read-out: Minimal Inhibition Concentration (MIC) E. faecalis LMG16216
parameter-measured: MIC (µM)
Just the number please, in µM, no unit attached.

So for `CC(C)[Si](Oc1cc(/C=C/c2ccc(OS(=O)(=O)O)cc2)cc(OS(=O)(=O)O)c1)(C(C)C)C(C)C` , the logged MIC turned out to be 8

So for CCCCCCCCCCCCCCCCCC(=O)OC[C@H]1O[C@@H](Oc2cc(O)cc(/C=C/c3ccc(O)cc3)c2)[C@H](O)[C@@H](O)[C@@H]1O [compound 6, piceid stearate] , the logged MIC turned out to be 128

So for `CC(C)[Si](Oc1ccc(/C=C/c2cc(O)cc(O)c2)cc1)(C(C)C)C(C)C` , the logged MIC turned out to be 8

So for `CC(C)[Si](Oc1cc(O)cc(/C=C/c2ccc(O)cc2)c1)(C(C)C)C(C)C` , the logged MIC turned out to be 4

So for COc1cc(/C=C/c2ccc(O[C@@H]3O[C@H](C(=O)O)[C@@H](O)[C@H](O)[C@H]3O)cc2)cc(OC)c1 [compound 30, PTER glucuronate] , the logged MIC turned out to be 128

So for CCCCOc1ccc(/C=C/c2cc(OS(=O)(=O)O)cc(OS(=O)(=O)O)c2)cc1 [compound 14, 4′-butyl-3,5-disulfate resveratrol] , the logged MIC turned out to be 16

So for `CCCCCCCCCCCC(=O)OC[C@H]1O[C@@H](Oc2cc(O)cc(/C=C/c3ccc(O)cc3)c2)[C@H](O)[C@@H](O)[C@@H]1O` , the logged MIC turned out to be 64

====

test system: C. tetani CECT4629; assay: microbe, parasite or virus in culture; type: cell-based; settings: Clostridium tetani, CECT4629, 24 h, read-out: Minimal Inhibition Concentration (MIC) C. tetani CECT4629
parameter-measured: MIC (µM)
Just the number please, in µM, no unit attached.

So for `CCCCCCCC(=O)OC[C@H]1O[C@@H](Oc2cc(/C=C/c3ccc(OC)cc3)cc(OC)c2)[C@H](O)[C@@H](O)[C@@H]1O` , the logged MIC turned out to be 16

So for `CC(C)[Si](Oc1cc(O)cc(/C=C/c2ccc(O)cc2)c1)(C(C)C)C(C)C` , the logged MIC turned out to be 5.3

So for CCCCOc1ccc(/C=C/c2cc(OS(=O)(=O)O)cc(OS(=O)(=O)O)c2)cc1 [compound 14, 4′-butyl-3,5-disulfate resveratrol] , the logged MIC turned out to be 16

So for `CC(C)(C)[Si](C)(C)Oc1ccc(/C=C/c2cc(O)cc(O[Si](C)(C)C(C)(C)C)c2)cc1` , the logged MIC turned out to be 5.3

So for `CC(C)[Si](Oc1ccc(/C=C/c2cc(O)cc(O)c2)cc1)(C(C)C)C(C)C` , the logged MIC turned out to be 6.7

So for `CCCCCCCC(=O)OC[C@H]1O[C@@H](Oc2cc(O)cc(/C=C/c3ccc(O)cc3)c2)[C@H](O)[C@@H](O)[C@@H]1O` , the logged MIC turned out to be 21.3

So for `CC(C)[Si](Oc1cc(/C=C/c2ccc(OS(=O)(=O)O)cc2)cc(OS(=O)(=O)O)c1)(C(C)C)C(C)C` , the logged MIC turned out to be 64

So for `CC(C)(C)[Si](C)(C)Oc1ccc(/C=C/c2cc(OS(=O)(=O)O)cc(OS(=O)(=O)O)c2)cc1` , the logged MIC turned out to be 5.3

So for COc1cc(/C=C/c2ccc(O[C@@H]3O[C@H](C(=O)O)[C@@H](O)[C@H](O)[C@H]3O)cc2)cc(OC)c1 [compound 30, PTER glucuronate] , the logged MIC turned out to be 4

====

system: C. beijerinckii B504; assay: MIC test, anaerobes; assay type: cell-based; settings: Clostridium beijerinckii, B504, 24 h; read-out: Minimal Inhibition Concentration (MIC) C. beijerinckii B504
parameter-measured: MIC (µM)
Just the number please, in µM, no unit attached.

So for CCCCOc1ccc(/C=C/c2cc(OS(=O)(=O)O)cc(OS(=O)(=O)O)c2)cc1 [compound 14, 4′-butyl-3,5-disulfate resveratrol] , the logged MIC turned out to be 16

So for `CC(C)[Si](Oc1cc(O)cc(/C=C/c2ccc(O)cc2)c1)(C(C)C)C(C)C` , the logged MIC turned out to be 10.7

So for COc1cc(/C=C/c2ccc(O[C@@H]3O[C@H](C(=O)O)[C@@H](O)[C@H](O)[C@H]3O)cc2)cc(OC)c1 [compound 30, PTER glucuronate] , the logged MIC turned out to be 10.7

So for `CCCCCCCCCCCC(=O)OC[C@H]1O[C@@H](Oc2cc(O)cc(/C=C/c3ccc(O)cc3)c2)[C@H](O)[C@@H](O)[C@@H]1O` , the logged MIC turned out to be 16

So for `CCCCCCCC(=O)OC[C@H]1O[C@@H](Oc2cc(O)cc(/C=C/c3ccc(O)cc3)c2)[C@H](O)[C@@H](O)[C@@H]1O` , the logged MIC turned out to be 32

So for `CC(C)(C)[Si](C)(C)Oc1ccc(/C=C/c2cc(O)cc(O[Si](C)(C)C(C)(C)C)c2)cc1` , the logged MIC turned out to be 32

So for `CC(C)[Si](Oc1ccc(/C=C/c2cc(O)cc(O)c2)cc1)(C(C)C)C(C)C` , the logged MIC turned out to be 21.3

So for `CCCCCCCC(=O)OC[C@H]1O[C@@H](Oc2cc(/C=C/c3ccc(OC)cc3)cc(OC)c2)[C@H](O)[C@@H](O)[C@@H]1O` , the logged MIC turned out to be 32

So for `CC(C)(C)[Si](C)(C)Oc1ccc(/C=C/c2cc(OS(=O)(=O)O)cc(OS(=O)(=O)O)c2)cc1` , the logged MIC turned out to be 32
